Test system: MCF7
Assay name: NCI tumour cell line growth inhibition, 48 h
The source made the active and inactive calls. Cut-off read from the data, not from the text of the source: active = GI50 up to about 1.1 µM and inactive = higher.
Attribute measured: GI50

Reference set, count: 4
- Cc1[nH]n(-c2nc3c(c(=O)[nH]2)CCCC3)c(=O)c1CCO: > 100 µM (inactive)
- CCNc1cc2c(cc1O)CC[C@@H]1[C@@H]2CC[C@]2(C)[C@@H](O)CC[C@@H]12: 8.43 µM (inactive)
- C[C@@]12C[C@@H](c3ccccc3O1)N1CCCCSC1=N2: > 100 µM (inactive)
- CC(C)C1=C2CCC3(C)C(CCC4C5C6OCC5(CCC6(C)C)CCC43C)C2(C)CC1 (stereo not given): 23.4 µM (inactive)

Ask | Can you look up the measured GI50 of `O=c1c2cc(-c3ccccc3)sc2nc2n1N=C(c1ccc(Cl)cc1)CS2` for me?
Reply | > 100 µM (inactive)
